- ASSAY_TARGET: Cruzipain (Trypanosoma cruzi) (UniProt P25779)
- Sequence (P25779 123-467 limits assumed): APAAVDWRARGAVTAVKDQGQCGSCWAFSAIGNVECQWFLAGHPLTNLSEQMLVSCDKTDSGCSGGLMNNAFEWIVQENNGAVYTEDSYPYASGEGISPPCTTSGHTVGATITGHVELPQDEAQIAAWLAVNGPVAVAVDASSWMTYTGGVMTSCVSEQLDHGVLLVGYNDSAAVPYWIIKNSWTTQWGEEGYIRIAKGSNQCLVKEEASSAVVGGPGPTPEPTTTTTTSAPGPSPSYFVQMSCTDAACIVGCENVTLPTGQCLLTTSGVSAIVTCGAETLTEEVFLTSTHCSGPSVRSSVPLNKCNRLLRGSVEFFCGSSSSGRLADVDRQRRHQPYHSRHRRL
- EXPERIMENT: qHTS Assay for Promiscuous and Specific Inhibitors of Cruzain (without detergent);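 also: plate controls were enzyme without inhibitor for no effect and buffer without enzyme for full effect; nearly all actives have a fitted effect of over 40% in size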
- APPLIED_CONDITIONS: purified cruzain, Z-FR-AMC fluorescence, no detergent
The campaign covered roughly 200,000 compounds. About 4,500 (2.2%) were called active. About 12% were inconclusive and are not listed. The sample as a whole holds a higher share of actives than the screen did.
Consider the following molecules; for each one, report its max response, negative = inhibition.
# unit: % | format: bare number

Ask: // fetch max response, negative = inhibition; item: CCN(CC)CCNC(=O)c1cc2c(=O)oc3ccc(C)cc3c2s1 ; system: Cruzipain (Trypanosoma cruzi) (UniProt P25779)
Reply: -5.21

Ask: // fetch max response, negative = inhibition; item: COc1ccccc1CNC(=O)CCn1c(=O)c2ccccc2n(CC(=O)Nc2ccc(Br)cc2F)c1=O ; system: Cruzipain (Trypanosoma cruzi) (UniProt P25779)
Reply: -7.67

Ask: // fetch max response, negative = inhibition; item: CCOc1ccc(NC(=O)c2ncoc2-c2ccco2)cc1 ; system: Cruzipain (Trypanosoma cruzi) (UniProt P25779)
Reply: -16.9

Ask: // fetch max response, negative = inhibition; item: COc1ccc(-n2c(=O)c3ccccc3n(Cc3ccccc3Cl)c2=O)cc1 ; system: Cruzipain (Trypanosoma cruzi) (UniProt P25779)
Reply: 6.51

Ask: // fetch max response, negative = inhibition; item: COc1ccccc1CNC(=O)NCc1noc2ccc(C)cc12 ; system: Cruzipain (Trypanosoma cruzi) (UniProt P25779)
Reply: -3.84

Ask: // fetch max response, negative = inhibition; item: Cc1ccccc1NC(=O)Cn1c(=O)n(Cc2ccco2)c(=O)c2ccc(C(=O)NC3CCCC3)cc21 ; system: Cruzipain (Trypanosoma cruzi) (UniProt P25779)
Reply: 4.88

Ask: // fetch max response, negative = inhibition; item: COc1ccc(N(C)C(=O)CCS(=O)(=O)c2cccc3nsnc23)cc1 ; system: Cruzipain (Trypanosoma cruzi) (UniProt P25779)
Reply: -4.91

Ask: // fetch max response, negative = inhibition; item: NC(=O)CSc1nc2c(oc3ccccc32)c(=O)n1Cc1ccccc1 ; system: Cruzipain (Trypanosoma cruzi) (UniProt P25779)
Reply: 1.12

Ask: // fetch max response, negative = inhibition; item: c1cncc(-c2nc(N3CCNCC3)c3ccccc3n2)c1 ; system: Cruzipain (Trypanosoma cruzi) (UniProt P25779)
Reply: 0.953

Ask: // fetch max response, negative = inhibition; item: COc1ccc(C(=O)NNC(=S)NC(=O)c2ccccc2[N+](=O)[O-])cc1 ; system: Cruzipain (Trypanosoma cruzi) (UniProt P25779)
Reply: -1.55

Ask: // fetch max response, negative = inhibition; item: Cc1cc(C(=O)Nc2ccccc2N2CCOCC2)c2ccccc2n1 ; system: Cruzipain (Trypanosoma cruzi) (UniProt P25779)
Reply: 4.56

Ask: // fetch max response, negative = inhibition; item: COc1ccc(C2=NS(=O)(=O)N(C)C(C(=O)NC(C)c3ccccc3)=C2)cc1 (configuration not stated) ; system: Cruzipain (Trypanosoma cruzi) (UniProt P25779)
Reply: -27.6

Ask: // fetch max response, negative = inhibition; item: COCCn1c(SCC(=O)Nc2ccc3c(c2)CCC3)nc2ccccc2c1=O ; system: Cruzipain (Trypanosoma cruzi) (UniProt P25779)
Reply: 7.57

Ask: // fetch max response, negative = inhibition; item: COc1ccc(C2=NN(C(=O)c3cccnc3)C(c3ccccc3)C2)cc1 (configuration not stated) ; system: Cruzipain (Trypanosoma cruzi) (UniProt P25779)
Reply: 7.92

Ask: // fetch max response, negative = inhibition; item: COc1ccccc1N1CCN(C(CNC(=O)C(=O)NCc2ccc(C)cc2)c2cccnc2)CC1 (configuration not stated) ; system: Cruzipain (Trypanosoma cruzi) (UniProt P25779)
Reply: 1.39

Ask: // fetch max response, negative = inhibition; item: Cc1ccc(OCC(=O)OCc2cc(=O)n3nc(C4CC4)sc3n2)cc1C ; system: Cruzipain (Trypanosoma cruzi) (UniProt P25779)
Reply: -7.58

Ask: // fetch max response, negative = inhibition; item: Cc1ccc(-c2nc(SCc3ccc(Br)cc3)n3[nH]c(=O)cc3n2)cc1 ; system: Cruzipain (Trypanosoma cruzi) (UniProt P25779)
Reply: -0.81

Ask: // fetch max response, negative = inhibition; item: OCCNc1nc2ccccc2[nH]1 ; system: Cruzipain (Trypanosoma cruzi) (UniProt P25779)
Reply: -0.339

Ask: // fetch max response, negative = inhibition; item: Cc1ccccc1-c1nc(CS(=O)(=O)CC(=O)Nc2cc(Cl)cc(Cl)c2)c(C)o1 ; system: Cruzipain (Trypanosoma cruzi) (UniProt P25779)
Reply: -28.1

Ask: // fetch max response, negative = inhibition; item: CC(C)Nc1nc(N(c2ccccc2)c2ccccc2)nc(-n2ccnc2)n1 ; system: Cruzipain (Trypanosoma cruzi) (UniProt P25779)
Reply: 11.1

Ask: // fetch max response, negative = inhibition; item: Cc1ccc(C(=O)NCCSc2c(C)[nH]c3ccccc23)cc1C ; system: Cruzipain (Trypanosoma cruzi) (UniProt P25779)
Reply: 13.2

Ask: // fetch max response, negative = inhibition; item: COc1ccc(OC)c(NC(=O)Cn2c(=O)n(Cc3ccccc3)c(=O)c3ccccc32)c1 ; system: Cruzipain (Trypanosoma cruzi) (UniProt P25779)
Reply: -9.43

# credit: PubChem BioAssay AID1476
